The measurements presented in this section are drawn from ChEMBL document CHEMBL1201861.

Reported IC50 is given for each of the following compounds.
System: MEL-JUSO;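 note: growth inhibition of human MEL-JUSO cells, read out with a cell viability assay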
Experiment Description: cells
Type: functional, cell-based
Measurement Parameters: Homo sapiens
Description: SANGER: Inhibition of human MEL-JUSO cell growth in a cell viability assay.

[
  {
    "Structure Notation": "Cc1ccc(C(=O)Nc2ccc(CN3CCN(C)CC3)c(C(F)(F)F)c2)cc1C#Cc1cnc2cccnn12",
    "Measured Target": "MEL-JUSO",
    "Value Comparator": ">",
    "IC50 [nM]": 512
  },
  {
    "Structure Notation": "COc1ccc(-c2cc3nccn3c(Nc3ncccc3C(N)=O)n2)cc1OC",
    "Measured Target": "MEL-JUSO",
    "Value Comparator": "=",
    "IC50 [nM]": 2740
  },
  {
    "Structure Notation": "COC(=O)[C@H](CCSC)NC(=O)c1ccc(NC[C@@H](N)CS)cc1-c1ccccc1",
    "Measured Target": "MEL-JUSO",
    "Value Comparator": "=",
    "IC50 [nM]": 184
  },
  {
    "Structure Notation": "OC[C@H](Cc1ccccc1)Nc1nc(Oc2ccc3c(c2)CCC3)nc2c1ncn2Cc1ccc(-c2ccccc2)cc1",
    "Measured Target": "MEL-JUSO",
    "Value Comparator": "=",
    "IC50 [nM]": 7900
  },
  {
    "Structure Notation": "C/C(=C\\c1csc(C)n1)[C@@H]1C[C@@H]2O[C@]2(C)CCC[C@H](C)[C@H](O)[C@@H](C)C(=O)C(C)(C)[C@@H](O)CC(=O)O1",
    "Measured Target": "MEL-JUSO",
    "Value Comparator": "=",
    "IC50 [nM]": 0.928
  },
  {
    "Structure Notation": "CN(NC(=O)CC(=O)NN(C)C(=S)c1ccccc1)C(=S)c1ccccc1",
    "Measured Target": "MEL-JUSO",
    "Value Comparator": "=",
    "IC50 [nM]": 10.6
  }
]

###

Tested on: C2BBe1;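 note: growth inhibition of C2BBe1 cells, read out through a viability assay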
Experiment Description: cells
Assay type: functional, cell-based, Homo sapiens
Measurement Parameters: Homo sapiens, C2BBe1
Description: SANGER: Inhibition of human C2BBe1 cell growth in a cell viability assay.

[
  {
    "Structure Notation": "CN(NC(=O)CC(=O)NN(C)C(=S)c1ccccc1)C(=S)c1ccccc1",
    "Result Unit": "nM",
    "Value Comparator": "=",
    "IC50": 103
  },
  {
    "Structure Notation": "CC(C)C[C@H](NC(=O)[C@H](Cc1ccccc1)NC(=O)c1cnccn1)B(O)O",
    "Result Unit": "nM",
    "Value Comparator": "=",
    "IC50": 2.89
  },
  {
    "Structure Notation": "Cc1cc(N2CCOCC2)cc2[nH]c(-c3c(NC[C@@H](O)c4cccc(Cl)c4)cc[nH]c3=O)nc12",
    "Result Unit": "nM",
    "Value Comparator": ">",
    "IC50": 5120
  },
  {
    "Structure Notation": "CC1(C)CCC(c2ccc(Cl)cc2)=C(CN2CCN(c3ccc(C(=O)NS(=O)(=O)c4ccc(N[C@H](CCN5CCOCC5)CSc5ccccc5)c(S(=O)(=O)C(F)(F)F)c4)cc3)CC2)C1",
    "Result Unit": "nM",
    "Value Comparator": ">",
    "IC50": 2000
  }
]

###

System: SNU-449
Experiment Description: cells
Format: functional, cell-based
Measurement Parameters: Homo sapiens
Description: SANGER: Inhibition of human SNU-449 cell growth in a cell viability assay.
pIC50: −log10 of the molar value.
Reported pIC50 is given for each of the following molecules.

[
  {
    "Molecule": "NC1(c2ccc(-c3nc4ccn5c(=O)[nH]nc5c4cc3-c3ccccc3)cc2)CCC1 [MK-2206]",
    "Measured Target": "SNU-449",
    "Value Comparator": "<",
    "pIC50": 5.40
  },
  {
    "Molecule": "CN(NC(=O)CC(=O)NN(C)C(=S)c1ccccc1)C(=S)c1ccccc1 [ELESCLOMOL]",
    "Measured Target": "SNU-449",
    "Value Comparator": "=",
    "pIC50": 7.85
  },
  {
    "Molecule": "CCCCCCCCCCCC1=C(O)C(=O)C=C(O)C1=O [EMBELIN]",
    "Measured Target": "SNU-449",
    "Value Comparator": "=",
    "pIC50": 4.78
  },
  {
    "Molecule": "OC[C@H](Cc1ccccc1)Nc1nc(Oc2ccc3c(c2)CCC3)nc2c1ncn2Cc1ccc(-c2ccccc2)cc1",
    "Measured Target": "SNU-449",
    "Value Comparator": "=",
    "pIC50": 5.96
  },
  {
    "Molecule": "O=C1NC(=O)c2c1c(-c1ccccc1Cl)cc1[nH]c3ccc(O)cc3c21",
    "Measured Target": "SNU-449",
    "Value Comparator": "<",
    "pIC50": 5.70
  },
  {
    "Molecule": "COC(=O)[C@H](CCSC)NC(=O)c1ccc(NC[C@@H](N)CS)cc1-c1ccccc1",
    "Measured Target": "SNU-449",
    "Value Comparator": "<",
    "pIC50": 5.99
  }
]
